Study system: GSPT1 (Homo sapiens, UniProt P15170+Q96SW2)
Construct: CAL-51 cells were purchased from DSMZ (cat. Number ACC302); host or cells: CAL-51
Sequence (P15170 whole entry): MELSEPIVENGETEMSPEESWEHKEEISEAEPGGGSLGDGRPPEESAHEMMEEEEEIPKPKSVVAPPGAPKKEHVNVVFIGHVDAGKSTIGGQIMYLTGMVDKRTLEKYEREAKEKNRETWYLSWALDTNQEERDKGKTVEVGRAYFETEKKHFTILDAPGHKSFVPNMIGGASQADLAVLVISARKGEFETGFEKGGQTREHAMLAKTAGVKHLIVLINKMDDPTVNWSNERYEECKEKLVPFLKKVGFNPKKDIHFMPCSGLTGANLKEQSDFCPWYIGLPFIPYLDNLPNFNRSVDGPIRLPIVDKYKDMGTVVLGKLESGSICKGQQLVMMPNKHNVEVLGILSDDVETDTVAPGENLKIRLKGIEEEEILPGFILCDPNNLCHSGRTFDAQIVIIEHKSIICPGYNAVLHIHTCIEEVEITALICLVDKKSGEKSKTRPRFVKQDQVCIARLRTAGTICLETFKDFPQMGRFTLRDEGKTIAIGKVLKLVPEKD
Sequence (Q96SW2 whole entry): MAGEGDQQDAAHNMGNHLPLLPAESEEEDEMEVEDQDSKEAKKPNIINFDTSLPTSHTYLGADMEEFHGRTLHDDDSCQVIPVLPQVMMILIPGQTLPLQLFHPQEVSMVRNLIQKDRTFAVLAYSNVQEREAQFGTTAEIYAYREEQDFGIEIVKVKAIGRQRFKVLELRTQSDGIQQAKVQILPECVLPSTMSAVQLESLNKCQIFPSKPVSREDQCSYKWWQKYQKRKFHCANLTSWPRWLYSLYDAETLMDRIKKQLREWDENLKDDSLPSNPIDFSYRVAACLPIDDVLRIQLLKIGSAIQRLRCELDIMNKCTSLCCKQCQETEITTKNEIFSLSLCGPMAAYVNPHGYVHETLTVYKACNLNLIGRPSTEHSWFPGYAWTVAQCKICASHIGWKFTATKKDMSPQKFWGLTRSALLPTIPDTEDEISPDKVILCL
Sequence (Q16531 2-1140 partner limits assumed): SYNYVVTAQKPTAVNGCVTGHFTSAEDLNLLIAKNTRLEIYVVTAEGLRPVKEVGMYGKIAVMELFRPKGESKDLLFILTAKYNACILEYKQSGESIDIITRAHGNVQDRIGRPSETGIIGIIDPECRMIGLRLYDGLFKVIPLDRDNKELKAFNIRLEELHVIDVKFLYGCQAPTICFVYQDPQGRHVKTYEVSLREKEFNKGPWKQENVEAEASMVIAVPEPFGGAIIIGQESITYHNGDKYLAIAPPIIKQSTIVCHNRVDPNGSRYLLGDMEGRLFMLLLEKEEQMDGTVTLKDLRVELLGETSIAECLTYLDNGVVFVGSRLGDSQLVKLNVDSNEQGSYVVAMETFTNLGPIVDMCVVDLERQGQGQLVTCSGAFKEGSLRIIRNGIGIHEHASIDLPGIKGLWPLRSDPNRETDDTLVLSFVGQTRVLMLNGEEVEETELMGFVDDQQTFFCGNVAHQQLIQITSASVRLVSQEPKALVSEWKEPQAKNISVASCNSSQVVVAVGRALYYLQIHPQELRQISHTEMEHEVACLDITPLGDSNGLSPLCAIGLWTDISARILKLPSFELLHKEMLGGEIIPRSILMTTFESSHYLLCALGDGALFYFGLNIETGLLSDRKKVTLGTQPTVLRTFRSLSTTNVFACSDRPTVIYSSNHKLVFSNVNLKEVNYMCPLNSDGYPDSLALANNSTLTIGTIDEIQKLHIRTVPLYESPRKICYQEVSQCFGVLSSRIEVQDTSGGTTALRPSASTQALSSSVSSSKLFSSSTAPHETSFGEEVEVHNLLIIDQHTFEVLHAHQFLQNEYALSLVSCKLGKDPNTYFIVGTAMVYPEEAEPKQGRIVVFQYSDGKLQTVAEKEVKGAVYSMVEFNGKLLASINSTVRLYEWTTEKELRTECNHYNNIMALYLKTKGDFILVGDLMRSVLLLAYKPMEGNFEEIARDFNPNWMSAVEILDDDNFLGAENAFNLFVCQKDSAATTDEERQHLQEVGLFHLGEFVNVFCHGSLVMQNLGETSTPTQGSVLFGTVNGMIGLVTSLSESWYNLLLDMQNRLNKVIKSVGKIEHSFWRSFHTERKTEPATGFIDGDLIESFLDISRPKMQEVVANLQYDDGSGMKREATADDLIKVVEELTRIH
Protocol details: Immunofluorescence assay for activity to degrade GSPT1 in CAL-51 cells
Assay type: cell-based
Conditions used: 6 h treatment, read-out: IF Class (GSPT1 degradation, DC50)
Endpoint: DC50

C[C@@H](NC(=O)OC1CN(c2cc(F)c(C3CCC(=O)NC3=O)c(F)c2)C1)C1CCCCC1 (some centres unmarked) [Compound 129]	30 to 300 nM
O=C1CCC(c2c(F)cc(N3CC(OC(=O)N4CCC(F)(F)CC4)C3)cc2F)C(=O)N1 (centres unmarked) [Compound 142]	> 300 nM
Cc1ccc(NC(=O)NC2CN(c3ccc(C4CCC(=O)NC4=O)cc3)C2)cc1Cl (centres unmarked) [Compound 66]	30 to 300 nM
CC1(c2ccc(NC(=O)NC3CN(c4cc(F)c(C5CCC(=O)NC5=O)c(F)c4)C3)cn2)CC1 (centres unmarked) [Compound 40]	≤ 30 nM
Cc1ccc(NC(=O)OC2CN(c3ccc(C4CCC(=O)NC4=O)c(C#N)c3)C2)cc1Cl (centres unmarked) [Compound 57]	30 to 300 nM

Consider the compound shown here: CC(C)(C)N1CC(NC(=O)OC2CN(c3cc(F)c(C4CCC(=O)NC4=O)c(F)c3)C2)C1 (centres unmarked) [Compound 126] What is its recorded DC50? > 300 nM

Consider the compound shown here: O=C1CCC(c2c(F)cc(N3CC(OC(=O)NC4CCSCC4)C3)cc2F)C(=O)N1 (centres unmarked) [Compound 116] What is its recorded DC50? ≤ 30 nM

Consider the compound shown here: O=C1CCC(c2c(F)cc(N3CC(OC(=O)Nc4cc(F)cc(OC(F)F)c4)C3)cc2F)C(=O)N1 (centres unmarked) [Compound 44] What is its recorded DC50? 30 to 300 nM

Consider the compound shown here: C[C@@H](NC(=O)OC1CN(c2cc(F)c(C3CCC(=O)NC3=O)c(F)c2)C1)c1ccccc1 (some centres unmarked) [Compound 123] What is its recorded DC50? ≤ 30 nM

Consider the compound shown here: Cc1c(Cl)cc(NC(=O)OC2CN(c3cc(F)c(C4CCC(=O)NC4=O)c(F)c3)C2)cc1C#N (centres unmarked) [Compound 53] What is its recorded DC50? 30 to 300 nM

Consider the compound shown here: C[C@@H]1CCCN1c1ccc(NC(=O)NC2CN(c3cc(F)c(C4CCC(=O)NC4=O)c(F)c3)C2)cn1 (some centres unmarked) [Compound 30] What is its recorded DC50? ≤ 30 nM

----------
Study system: GSPT1 (Homo sapiens, UniProt P15170+Q96SW2)
Construct: CAL-51 cells were purchased from DSMZ (cat. Number ACC302); host or cells: CAL-51
Protocol details: Immunofluorescence assay for activity to degrade GSPT1 in CAL-51 cells
Format: cell-based
Conditions used: 6 h treatment, read-out: IF Class (GSPT1 degradation, DC50)
Endpoint: DC50

Example molecules with recorded DC50:
CC(C)(C)NC(=O)OC1CN(c2cc(F)c(C3CCC(=O)NC3=O)c(F)c2)C1 (centres unmarked)	> 300 nM
O=C1CCC(c2c(F)cc(N3CC(OC(=O)NC4CC4)C3)cc2F)C(=O)N1 (centres unmarked)	> 300 nM
O=C1CCC(c2c(F)cc(N3CC(OC(=O)NC45CC(N6CCOCC6)(C4)C5)C3)cc2F)C(=O)N1 (centres unmarked)	> 300 nM
Cc1ccc(NC(=O)NC2CN(c3cc(F)c(C4CCC(=O)NC4=O)c(F)c3)C2)cc1Cl (centres unmarked)	≤ 30 nM
C[C@H]1CC[C@H](NC(=O)OC2CN(c3cc(F)c(C4CCC(=O)NC4=O)c(F)c3)C2)CC1 (some centres unmarked)	≤ 30 nM
CCCCNC(=O)OC1CN(c2cc(F)c(C3CCC(=O)NC3=O)c(F)c2)C1 (centres unmarked)	30 to 300 nM
Cc1ccc(NC(=O)NC2CN(c3cc(F)c(C4CCC(=O)NC4=O)c(F)c3)C2)cc1OC(F)F (centres unmarked)	≤ 30 nM

Now consider the entry below.
Field: DC50 (GSPT1 (Homo sapiens, UniProt P15170+Q96SW2)). Entry: COc1cc(C2CCC(=O)NC2=O)c(Cl)cc1N1CC(OC(=O)Nc2ccc(C)c(Cl)c2)C1 (centres unmarked) 30 to 300 nM

----------
Study system: GSPT1 (Homo sapiens, UniProt P15170+Q96SW2)
Construct: CAL-51 cells were purchased from DSMZ (cat. Number ACC302); host or cells: CAL-51
Protocol details: Immunofluorescence assay for activity to degrade GSPT1 in CAL-51 cells
Type: cell-based
Conditions used: 6 h treatment, read-out: IF Class (GSPT1 degradation, DC50)
Endpoint: DC50

CSCCNC(=O)OC1CN(c2cc(F)c(C3CCC(=O)NC3=O)c(F)c2)C1 (stereo not shown)	> 0.3 µM
COCC(COC)NC(=O)OC1CN(c2cc(F)c(C3CCC(=O)NC3=O)c(F)c2)C1 (stereo not shown)	> 0.3 µM

Consider the compound shown here: O=C1CCC(c2c(F)cc(N3CC(NC(=O)Nc4cc(F)cc(OC(F)(F)F)c4)C3)cc2F)C(=O)N1 (stereo not shown) What is its recorded DC50? 0.03 to 0.3 µM

Consider the compound shown here: O=C1CCC(c2c(F)cc(N3CC(OC(=O)Nc4cc(Cl)cc(OC(F)F)c4)C3)cc2F)C(=O)N1 (stereo not shown) What is its recorded DC50? 0.03 to 0.3 µM

Consider the compound shown here: O=C1CCC(c2c(F)cc(N3CC(OC(=O)N[C@@H]4CC5CCC4C5)C3)cc2F)C(=O)N1 (stereo partly shown) What is its recorded DC50? 0.03 to 0.3 µM

Consider the compound shown here: O=C1CCC(c2c(F)cc(N3CC(OC(=O)NC4COC4)C3)cc2F)C(=O)N1 (stereo not shown) What is its recorded DC50? > 0.3 µM

Consider the compound shown here: O=C1CCC(c2c(F)cc(N3CC(OC(=O)NC45CC(C4)C5)C3)cc2F)C(=O)N1 (stereo not shown) What is its recorded DC50? > 0.3 µM

Consider the compound shown here: O=C1CCC(c2c(F)cc(N3CC(OC(=O)NCC4CCCCC4)C3)cc2F)C(=O)N1 (stereo not shown) What is its recorded DC50? ≤ 0.03 µM

Consider the compound shown here: Cc1ccc(NC(=O)NC2CN(c3ccc(C4CCC(=O)NC4=O)c(Cl)c3)C2)cc1Cl (stereo not shown) What is its recorded DC50? 0.03 to 0.3 µM

----------
Study system: GSPT1 (Homo sapiens, UniProt P15170+Q96SW2)
Construct: CAL-51 cells were purchased from DSMZ (cat. Number ACC302); host or cells: CAL-51
Protocol details: Immunofluorescence assay for activity to degrade GSPT1 in CAL-51 cells
Assay type: cell-based
Conditions used: 6 h treatment, read-out: IF Class (GSPT1 degradation, DC50)
Endpoint: DC50

Example compounds with recorded DC50:
Cc1cc(C)cc(NC(=O)OC2CN(c3cc(F)c(C4CCC(=O)NC4=O)c(F)c3)C2)c1 (centres unmarked)	30 to 300 nM
Cc1ccccc1-c1ccc(NC(=O)NC2CN(c3cc(F)c(C4CCC(=O)NC4=O)c(F)c3)C2)cn1 (centres unmarked)	≤ 30 nM

Consider the compound shown here: CN1CCC(NC(=O)NC2CN(c3cc(F)c(C4CCC(=O)NC4=O)c(F)c3)C2)C1 (centres unmarked) What is its recorded DC50? > 300 nM

Consider the compound shown here: CC(C)CCNC(=O)OC1CN(c2cc(F)c(C3CCC(=O)NC3=O)c(F)c2)C1 (centres unmarked) What is its recorded DC50? ≤ 30 nM

Consider the compound shown here: C[C@@H]1CCCN1c1ccc(NC(=O)OC2CN(c3cc(F)c(C4CCC(=O)NC4=O)c(F)c3)C2)cn1 (some centres unmarked) What is its recorded DC50? ≤ 30 nM

----------
Study system: GSPT1 (Homo sapiens, UniProt P15170+Q96SW2)
Construct: CAL-51 cells were purchased from DSMZ (cat. Number ACC302); host or cells: CAL-51
Protocol details: Immunofluorescence assay for activity to degrade GSPT1 in CAL-51 cells
Format: cell-based
Conditions used: 6 h treatment, read-out: IF Class (GSPT1 degradation, DC50)
Reported values of DC50 for individual entries

Example molecules with recorded DC50:
O=C1CCC(c2c(F)cc(N3CC(OC(=O)NC4[C@H]5C[C@@H]6C[C@@H](C[C@H]4C6)C5)C3)cc2F)C(=O)N1 (stereo partly shown)	30 to 300 nM
O=C1CCC(c2c(F)cc(N3CC(OC(=O)NCCC(F)(F)F)C3)cc2F)C(=O)N1 (stereo not shown)	> 300 nM
Cc1c(Cl)cc(NC(=O)OC2CN(c3cc(F)c(C4CCC(=O)NC4=O)c(F)c3)C2)cc1OCCN1CCOCC1 (stereo not shown)	≤ 30 nM

Consider the molecule shown here: COc1c(N2CC(OC(=O)Nc3ccc(C)c(Cl)c3)C2)cc(F)c(C2CCC(=O)NC2=O)c1F (stereo not shown) What is its recorded DC50? 30 to 300 nM

Consider the molecule shown here: Cc1cc(NC(=O)OC2CN(c3cc(F)c(C4CCC(=O)NC4=O)c(F)c3)C2)ccc1F (stereo not shown) What is its recorded DC50? ≤ 30 nM

Consider the molecule shown here: O=C1CCC(c2c(F)cc(N3CC(NC(=O)NC45CC(c6ccccc6)(C4)C5)C3)cc2F)C(=O)N1 (stereo not shown) What is its recorded DC50? ≤ 30 nM

Consider the molecule shown here: O=C1CCC(c2c(F)cc(N3CC(NC(=O)Nc4cc(Cl)cc(OC(F)F)c4)C3)cc2F)C(=O)N1 (stereo not shown) What is its recorded DC50? 30 to 300 nM
